# Bliss interaction score per entry
Tested on: S. aureus Newman
Test: Bliss interaction score (quartile over a dose matrix) (fitness difference); higher = more antagonism (negative = synergy)

{"compound": "CO[C@@H]1[C@@H](OC(N)=O)[C@@H](O)[C@H](Oc2ccc3c(O)c(NC(=O)c4ccc(O)c(CC=C(C)C)c4)c(=O)oc3c2C)OC1(C)C [Novobiocin] + CCN(CC)CCOC(=O)c1ccc(N)cc1 [Procaine]", "Bliss interaction score": 0.0326}
{"compound": "CN[C@@H]1[C@H](O[C@H]2[C@H](O[C@H]3[C@H](O)[C@@H](O)[C@H](N=C(N)N)[C@@H](O)[C@@H]3N=C(N)N)O[C@@H](C)[C@]2(O)C=O)O[C@@H](CO)[C@H](O)[C@H]1O [Streptomycin] + Cn1nnc(-c2ccc(-c3ccc(N4C[C@H](CO)OC4=O)cc3F)cn2)n1 [Tedizolid]", "Bliss interaction score": -0.188}
{"compound": "CN[C@H](CC(C)C)C(=O)N[C@H]1C(=O)N[C@@H](CC(N)=O)C(=O)N[C@H]2C(=O)N[C@H]3C(=O)N[C@H](C(=O)N[C@H](C(=O)O)c4cc(O)cc(O)c4-c4cc3ccc4O)[C@H](O[C@H]3C[C@](C)(N)[C@@H](O)[C@H](C)O3)c3ccc(c(Cl)c3)Oc3cc2cc(c3O[C@@H]2O[C@H](CO)[C@@H](O)[C@H](O)[C@H]2O[C@H]2C[C@](C)(NCc3ccc(-c4ccc(Cl)cc4)cc3)[C@@H](O)[C@H](C)O2)Oc2ccc(cc2Cl)[C@H]1O [Oritavancin] + Cn1nnc(-c2ccc(-c3ccc(N4C[C@H](CO)OC4=O)cc3F)cn2)n1 [Tedizolid]", "Bliss interaction score": -0.0895}

----------
Test system: S. aureus DSM 20231
Experiment: Bliss interaction score (quartile over a dose matrix) (fitness difference); higher = more antagonism (negative = synergy)
Conditions: main component drawn
measure: Bliss interaction score

{"compound": "CC[C@H](C)[C@H](N)C1=N[C@H](C(=O)N[C@@H](CC(C)C)C(=O)N[C@H](CCC(=O)O)C(=O)N[C@H](C(=O)N[C@H]2CCCCNC(=O)[C@H](CC(N)=O)NC(=O)[C@@H](CC(=O)O)NC(=O)[C@H](Cc3cnc[nH]3)NC(=O)[C@@H](Cc3ccccc3)NC(=O)[C@H]([C@@H](C)CC)NC(=O)[C@@H](CCCN)NC2=O)[C@@H](C)CC)CS1 [Bacitracin] + Cc1onc(-c2ccccc2)c1C(=O)N[C@@H]1C(=O)N2[C@@H]1SC(C)(C)[C@@H]2C(=O)O [Oxacillin]", "target.of.assay": "S. aureus DSM 20231", "measure": "Bliss interaction score", "endpoint.result": 0.0803}
{"compound": "CC[C@H](C)[C@H](N)C1=N[C@H](C(=O)N[C@@H](CC(C)C)C(=O)N[C@H](CCC(=O)O)C(=O)N[C@H](C(=O)N[C@H]2CCCCNC(=O)[C@H](CC(N)=O)NC(=O)[C@@H](CC(=O)O)NC(=O)[C@H](Cc3cnc[nH]3)NC(=O)[C@@H](Cc3ccccc3)NC(=O)[C@H]([C@@H](C)CC)NC(=O)[C@@H](CCCN)NC2=O)[C@@H](C)CC)CS1 [Bacitracin] + CC(=O)O[C@H]1C[C@@]2(C)[C@@H](C[C@@H](O)[C@H]3[C@@]4(C)CC[C@@H](O)[C@@H](C)[C@@H]4CC[C@@]32C)/C1=C(\\CCC=C(C)C)C(=O)O [Fusidic acid]", "target.of.assay": "S. aureus DSM 20231", "measure": "Bliss interaction score", "endpoint.result": 0.012}

----------
Test system: B. subtilis 168
Assay: Bliss interaction score (quartile over a dose matrix) (fitness difference); higher = more antagonism (negative = synergy)
Conditions: main component drawn
measure: Bliss interaction score

{"compound": "CC[C@H](C)[C@H](N)C1=N[C@H](C(=O)N[C@@H](CC(C)C)C(=O)N[C@H](CCC(=O)O)C(=O)N[C@H](C(=O)N[C@H]2CCCCNC(=O)[C@H](CC(N)=O)NC(=O)[C@@H](CC(=O)O)NC(=O)[C@H](Cc3cnc[nH]3)NC(=O)[C@@H](Cc3ccccc3)NC(=O)[C@H]([C@@H](C)CC)NC(=O)[C@@H](CCCN)NC2=O)[C@@H](C)CC)CS1 [Bacitracin] + CN1C2=CC=CC=C2N=C3C1=CC=CC3=O [Pyocyanin]", "endpoint.result": 0.0566}
{"compound": "CC[C@H](C)[C@H](N)C1=N[C@H](C(=O)N[C@@H](CC(C)C)C(=O)N[C@H](CCC(=O)O)C(=O)N[C@H](C(=O)N[C@H]2CCCCNC(=O)[C@H](CC(N)=O)NC(=O)[C@@H](CC(=O)O)NC(=O)[C@H](Cc3cnc[nH]3)NC(=O)[C@@H](Cc3ccccc3)NC(=O)[C@H]([C@@H](C)CC)NC(=O)[C@@H](CCCN)NC2=O)[C@@H](C)CC)CS1 [Bacitracin] + CO/N=C(\\C(=O)N[C@@H]1C(=O)N2C(C(=O)[O-])=C(C[N+]3(C)CCCC3)CS[C@H]12)c1csc(N)n1 [Cefepime]", "endpoint.result": -0.124}

----------
Tested on: B. subtilis 168
Assay: fitness (endpoint OD595 vs no drug) (fraction); higher = more growth
Conditions: first compound 37.5 µg/mL; partner 0.0625 µg/mL; main component drawn

{"molecule": "CC[C@H](C)[C@H](N)C1=N[C@H](C(=O)N[C@@H](CC(C)C)C(=O)N[C@H](CCC(=O)O)C(=O)N[C@H](C(=O)N[C@H]2CCCCNC(=O)[C@H](CC(N)=O)NC(=O)[C@@H](CC(=O)O)NC(=O)[C@H](Cc3cnc[nH]3)NC(=O)[C@@H](Cc3ccccc3)NC(=O)[C@H]([C@@H](C)CC)NC(=O)[C@@H](CCCN)NC2=O)[C@@H](C)CC)CS1 [Bacitracin] + COc1c(N2C[C@@H]3CCCN[C@@H]3C2)c(F)cc2c(=O)c(C(=O)O)cn(C3CC3)c12 [Moxifloxacin]", "fitness": 0.0342}

----------
System: S. pneumoniae D39V
Experiment: Bliss interaction score (quartile over a dose matrix) (fitness difference); higher = more antagonism (negative = synergy)
Decision: Bliss interaction score >= 0.06 yields Met, all other cases yield Not met.

{"molecule": "CO[C@@H]1[C@@H](OC(N)=O)[C@@H](O)[C@H](Oc2ccc3c(O)c(NC(=O)c4ccc(O)c(CC=C(C)C)c4)c(=O)oc3c2C)OC1(C)C [Novobiocin] + CC1=C\\[C@@H](O)CC(=O)Cc2nc(co2)C(=O)N2CCC=C2C(=O)O[C@H](C(C)C)[C@H](C)/C=C/C(=O)NC\\C=C\\1 [Virginiamycin M1]", "class": "Met"}
{"molecule": "CC[C@H]1OC(=O)[C@H](C)[C@@H](O[C@H]2C[C@@](C)(OC)[C@@H](O)[C@H](C)O2)[C@H](C)[C@@H](O[C@@H]2O[C@H](C)C[C@H](N(C)C)[C@H]2O)[C@](C)(O)C[C@@H](C)C(=O)[C@H](C)[C@@H](O)[C@]1(C)O [Erythromycin] + Cc1onc(-c2ccccc2)c1C(=O)N[C@@H]1C(=O)N2[C@@H]1SC(C)(C)[C@@H]2C(=O)O [Oxacillin]", "class": "Not met"}
{"molecule": "CO[C@H]1/C=C/O[C@@]2(C)Oc3c(C)c(O)c4c(O)c(c(/C=N/N5CCN(C)CC5)c(O)c4c3C2=O)NC(=O)/C(C)=C\\C=C\\[C@H](C)[C@H](O)[C@@H](C)[C@@H](O)[C@@H](C)[C@H](OC(C)=O)[C@@H]1C [Rifampicin] + COc1cc(Cc2cnc(N)nc2N)cc(OC)c1OC [Trimethoprim]", "class": "Met"}
{"molecule": "CO[C@@]12[C@H](COC(N)=O)C3=C(C(=O)C(C)=C(N)C3=O)N1C[C@@H]1N[C@@H]12 [MitomycinC] + COc1ccc(C[C@H](N)C(=O)N[C@H]2[C@@H](O)[C@H](n3cnc4c(N(C)C)ncnc43)O[C@@H]2CO)cc1 [Puromycin]", "class": "Met"}
{"molecule": "CO[C@@H]1[C@@H](OC(N)=O)[C@@H](O)[C@H](Oc2ccc3c(O)c(NC(=O)c4ccc(O)c(CC=C(C)C)c4)c(=O)oc3c2C)OC1(C)C [Novobiocin] + CO[C@H]1/C=C/O[C@@]2(C)Oc3c(C)c(O)c4c(O)c(c(/C=N/N5CCN(C)CC5)c(O)c4c3C2=O)NC(=O)/C(C)=C\\C=C\\[C@H](C)[C@H](O)[C@@H](C)[C@@H](O)[C@@H](C)[C@H](OC(C)=O)[C@@H]1C [Rifampicin]", "class": "Met"}
{"molecule": "CN[C@@H]1[C@H](O[C@H]2[C@H](O[C@H]3[C@H](O)[C@@H](O)[C@H](N=C(N)N)[C@@H](O)[C@@H]3N=C(N)N)O[C@@H](C)[C@]2(O)C=O)O[C@@H](CO)[C@H](O)[C@H]1O [Streptomycin] + CN(N=O)C(=O)N[C@@H](C=O)[C@@H](O)[C@H](O)[C@H](O)CO [Streptozotocin]", "class": "Met"}

The origin of these recorded values is the supplement of paper PMC10627819.
